Source: patent US9630963B2

# TARGET_DESC: human recombinant FGFR1 (Homo sapiens)
# Sequence (P11362 22-822): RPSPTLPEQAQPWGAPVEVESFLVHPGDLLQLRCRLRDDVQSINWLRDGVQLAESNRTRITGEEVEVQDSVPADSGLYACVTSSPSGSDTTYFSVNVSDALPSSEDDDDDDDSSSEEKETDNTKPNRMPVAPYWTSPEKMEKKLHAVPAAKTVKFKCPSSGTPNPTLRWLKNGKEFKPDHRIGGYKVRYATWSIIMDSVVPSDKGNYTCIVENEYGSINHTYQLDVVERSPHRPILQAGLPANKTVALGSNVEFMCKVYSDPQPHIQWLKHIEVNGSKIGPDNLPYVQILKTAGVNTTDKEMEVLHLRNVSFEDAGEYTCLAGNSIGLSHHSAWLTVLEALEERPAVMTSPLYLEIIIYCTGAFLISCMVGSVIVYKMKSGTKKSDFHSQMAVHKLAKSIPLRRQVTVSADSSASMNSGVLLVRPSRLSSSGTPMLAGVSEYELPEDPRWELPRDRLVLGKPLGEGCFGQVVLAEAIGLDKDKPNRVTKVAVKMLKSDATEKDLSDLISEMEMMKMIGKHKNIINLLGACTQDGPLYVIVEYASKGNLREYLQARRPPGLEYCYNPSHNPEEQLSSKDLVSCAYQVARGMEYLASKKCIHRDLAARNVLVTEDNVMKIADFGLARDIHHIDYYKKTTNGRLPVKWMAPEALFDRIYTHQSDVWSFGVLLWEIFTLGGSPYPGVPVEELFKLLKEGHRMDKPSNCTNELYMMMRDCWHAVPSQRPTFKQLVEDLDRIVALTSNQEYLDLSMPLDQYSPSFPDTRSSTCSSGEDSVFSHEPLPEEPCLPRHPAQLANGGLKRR
# PROTOCOL_SUMMARY: FGFR family enzymatic activity assay (Caliper-based kinase assay), FGFR1
# CONDITION_LABEL: FGFR1 0.5 nM, ATP 100 μM, peptide substrate 1 μM, room temperature 3 h
# Source text: A Caliper-based kinase assay (Caliper Life Sciences, Hopkinton, Mass.) was used to measure inhibition of FGFR family (FGFR1, FGFR2, FGFR3, FGFR4) kinase activity of a compound of Formula (I′) or (I). […] This value is presented as the IC50.
Listing of entries alongside the reported IC50.
MEASURED_METRIC: IC50 (nM)

MOLECULE	MEASURED_METRIC	ASSAY_RESULT
C=CC(=O)Nc1ccc(CCn2c(=O)c(-c3c(Cl)c(OC)cc(OC)c3Cl)cc3cnc(NCCO)nc32)nc1	IC50	0.6
C=CC(=O)Nc1ccc(CCn2c(=O)c(-c3cc(OC)cc(OC)c3Cl)cc3cnc(NCCN4CCOCC4)nc32)cc1F	IC50	11.7
CNc1ncc2cc(-c3cc(OC)cc(OC)c3Cl)c(=O)n(CCc3ccc(NC(=O)/C=C/CN(C)C)cc3)c2n1	IC50	0.4
C=CC(=O)Nc1ccc(CCn2c(=O)c(-c3cc(OC)cc(OC)c3Cl)cc3cnc(NCCN4CCOCC4)nc32)cn1	IC50	1.4
C=CC(=O)Nc1ccc(CCn2c(=O)c(-c3c(Cl)c(OC)cc(OC)c3Cl)cc3cnc(NC(C)(CO)CO)nc32)cc1	IC50	0.6
C=CC(=O)Nc1ccc(CCn2c(=O)c(-c3cc(OC)cc(OC)c3Cl)cc3cnc(NCCN4CCN(C5COC5)CC4)nc32)cc1	IC50	0.9
C=CC(=O)Nc1nc(CCn2c(=O)c(-c3c(Cl)c(OC)cc(OC)c3Cl)cc3cnc(NC)nc32)cs1	IC50	5
C=CC(=O)Nc1ccc(CCn2c(=O)c(-c3c(Cl)c(OC)cc(OC)c3Cl)cc3cnc(NC)nc32)nc1	IC50	1.2
C=CC(=O)Nc1ccc(CCn2c(=O)c(-c3c(Cl)c(OC)cc(OC)c3Cl)cc3cnc(NCC(O)CO)nc32)cc1 (centres unmarked)	IC50	0.7
C=CC(=O)Nc1ccc(CCn2c(=O)c(-c3c(Cl)c(OC)cc(OC)c3Cl)cc3cnc(NC(C)(C)CO)nc32)nc1	IC50	2.1
C=CC(=O)Nc1ccc(CCn2c(=O)c(-c3c(Cl)c(OC)cc(OC)c3Cl)cc3cnc(NCCN4CCOCC4)nc32)cc1	IC50	1
C=CC(=O)Nc1cccc(Cn2c(=O)c(-c3c(Cl)c(OC)cc(OC)c3Cl)cc3cnc(NCCCCN(CC)CC)nc32)c1	IC50	1.3
C=CC(=O)Nc1ccc(CCn2c(=O)c(-c3c(Cl)c(OC)cc(OC)c3Cl)cc3cnc(NC(C)C)nc32)nc1	IC50	0.5
C=CC(=O)Nc1ccc(CCn2c(=O)c(-c3c(Cl)c(OC)cc(OC)c3Cl)cc3cnc(NCC(O)CO)nc32)nc1 (centres unmarked)	IC50	0.6
